Where do these numbers come from? They come from patent US20230068663A1.

# TESTED_TARGET: T1, LILRB4
# T1 construct: also called LILRB4 reporter cells; not shown: transmembrane/intracellular domains of PILRb, the display part of the chimeric reporter receptor
# ASSAY_NOTES: flow cytometry, reporter cells
PROPERTY: MFI
Form: value (number only, do not type unit).

// worked examples, MFI included
{"BINDER": "B2-17 (antibody, V domains shown, also called B2-17_HC; B2-17_LC) VH: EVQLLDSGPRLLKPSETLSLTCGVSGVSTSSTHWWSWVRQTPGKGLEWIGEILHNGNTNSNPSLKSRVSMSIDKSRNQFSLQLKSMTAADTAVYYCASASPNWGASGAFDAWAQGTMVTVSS VL: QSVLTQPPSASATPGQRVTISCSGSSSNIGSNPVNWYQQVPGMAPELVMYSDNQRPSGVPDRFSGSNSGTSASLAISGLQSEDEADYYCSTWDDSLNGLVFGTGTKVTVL", "MFI": 13}
{"BINDER": "B2-16 (antibody, V domains shown, also called B2-16_HC; B2-16_LC) VH: QVQLVQSGAEVKKPGSSVKVSCKASGGTFSSYAISWVRQAPGQGLEWMGGIIPIFGTANYAQKFQGRVTITADESTSTAYMELSSLRSEDTAVYYCASGIIPDNPYGMDVWGQGTMVSVSS VL: DIVMTQSPLSLPVTLGQPASISCTSSQSLVYSDGNTYLNWFHQRPGQSPRRLFYKVSNRASGVPDRFSGSGSGTDFTLKISRVEAEDLGVYYCMQGTHWPVTFGQGTRLEIK", "MFI": 14}
{"BINDER": "B2-7 (antibody, V domains shown, also called B2-7_HC; B2-7_LC) VH: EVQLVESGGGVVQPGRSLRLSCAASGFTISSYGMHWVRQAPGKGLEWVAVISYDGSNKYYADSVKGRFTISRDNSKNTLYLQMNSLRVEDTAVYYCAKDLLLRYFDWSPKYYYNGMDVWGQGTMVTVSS VL: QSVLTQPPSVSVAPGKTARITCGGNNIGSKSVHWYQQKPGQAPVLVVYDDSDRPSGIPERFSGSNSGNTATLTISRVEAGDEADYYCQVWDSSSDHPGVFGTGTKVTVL", "MFI": 15}

Now turn to the next binder.
In: Name the recorded MFI of the binder listed here: B2-15 (antibody, V domains shown, also called B-15; B2-15_HC) VH: EVQLVQSGAEVKKSGASVKVSCKSSGYTFTNYGISWVRQAPGQGLEWMGWISGDAGDTKFAQKFQGRVTMTTDTSTTTTYMELRSLRSDDTAVYYCARDGEYIPMFRGFDNYYGLDVWGQGTLVSVSS VL: QSVLTQPPSASATPGQRVTISCSGRNANIGSNPVNWYQQLPGTAPRLVMYSNNQRPSGVPDRFSGSKSGTSASLAISGLQSEDEADYYCEGWDDSLNGYVFGTGTKVTVL
Out: 14
